Please provide measured inhibition for the entries that follow.
Biological target: 5-hydroxytryptamine receptor 6 (Homo sapiens, UniProt P50406)
Sequence (P50406 whole entry): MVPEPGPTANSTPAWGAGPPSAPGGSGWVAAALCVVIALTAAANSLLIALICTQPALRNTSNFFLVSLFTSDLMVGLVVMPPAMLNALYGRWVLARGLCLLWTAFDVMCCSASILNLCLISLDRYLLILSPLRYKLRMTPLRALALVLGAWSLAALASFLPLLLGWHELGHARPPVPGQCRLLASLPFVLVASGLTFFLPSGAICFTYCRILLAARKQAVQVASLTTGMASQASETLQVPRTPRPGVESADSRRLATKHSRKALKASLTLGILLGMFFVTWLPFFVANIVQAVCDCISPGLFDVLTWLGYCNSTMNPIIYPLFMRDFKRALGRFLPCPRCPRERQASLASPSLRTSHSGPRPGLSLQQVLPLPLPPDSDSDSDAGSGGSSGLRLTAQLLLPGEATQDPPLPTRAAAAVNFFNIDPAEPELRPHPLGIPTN
Assay: Displacement of [3H]LSD from human recombinant 5-HT6 receptor expressed in CHO-K1 cells at 1 uM incubated for 3 hrs by scintillation counting analysis
Format: cell-based
Give bare numbers, in %.

Hi, could you look up inhibition for each item in my list?
1. CN1CCC(c2cccc3c2CN(S(=O)(=O)c2ccccc2)C3)CC1
2. CCN1CCN(c2ccc3c(c2)N(S(=O)(=O)c2ccccc2)CC3)CC1
3. O=S(=O)(c1ccccc1)N1CCc2cc(N3CCNCC3)ccc21
4. CN1CCC(c2cccc3c2CCN3S(=O)(=O)c2ccccc2)CC1
5. O=S(=O)(c1ccccc1)N1Cc2cccc(N3CCN(C4CCC4)CC3)c2C1
6. CCN1CCC(c2ccc3c(c2)N(S(=O)(=O)c2ccccc2)CC3)CC1

[94, 86, 90, 87, 98, 95]

----------
Biological target: D(2) dopamine receptor (Homo sapiens)
Test: Displacement of [3H]raclopride from human recombinant dopamine D2 long receptor expressed in CHO-K1 cells at 1 uM incubated for 120 mins by scintillation counting analysis
Format: cell-based
Classification field: enter Met for inhibition values not below 20%, Not met for values below it.

Use the examples below as a reference point.
• CCCN1CCC(c2cccc3c2CN(S(=O)(=O)c2ccccc2)C3)CC1 = Met
• O=S(=O)(c1ccccc1)N1Cc2ccc(N3CCNCC3)cc2C1 = Not met

Determine whether this compound has inhibition no lower than 20%: CCN1CCC(c2ccc3c(c2)CCN3S(=O)(=O)c2ccccc2)CC1
Not met

Decide: is the reported value of inhibition for O=S(=O)(c1ccccc1)N1CCc2cc(N3CCN(C4CCC4)CC3)ccc21 equal to or greater than 20%?
Met

Please tell me: is the compound CCN1CCN(c2cccc3c2CCN3S(=O)(=O)c2ccccc2)CC1 at or over 20% in terms of inhibition?
Met

----------
Target: Histamine H3 receptor (Homo sapiens)
Sequence (Q9Y5N1 whole entry): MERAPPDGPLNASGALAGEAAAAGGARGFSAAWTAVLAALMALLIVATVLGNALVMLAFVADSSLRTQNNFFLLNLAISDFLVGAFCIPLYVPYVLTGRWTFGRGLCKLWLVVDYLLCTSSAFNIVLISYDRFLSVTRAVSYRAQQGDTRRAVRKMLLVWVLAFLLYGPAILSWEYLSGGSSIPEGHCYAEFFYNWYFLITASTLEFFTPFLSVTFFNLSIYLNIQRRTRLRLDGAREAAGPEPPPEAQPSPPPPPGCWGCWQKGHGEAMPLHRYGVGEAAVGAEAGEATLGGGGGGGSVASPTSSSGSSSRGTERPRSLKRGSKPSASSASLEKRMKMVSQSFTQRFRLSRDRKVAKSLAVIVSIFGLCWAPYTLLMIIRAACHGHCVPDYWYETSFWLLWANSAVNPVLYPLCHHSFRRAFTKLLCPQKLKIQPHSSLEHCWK
Assay: Displacement of N-alpha-[methyl-3H]methylhistamine dihydrochloride from human recombinant histamine H3 receptor expressed in CHO-K1 cells at 1 uM incubated for 30 mins by liquid scintillation counting analysis
Type: cell-based
Please provide measured inhibition for the entries that follow.
Numbers only, in %.

• O=S(=O)(c1ccccc1)N1Cc2cccc(C3CCN(C4CCC4)CC3)c2C1 = 13

I need inhibition for every entry listed below, if you could help.
1. CCCN1CCN(c2cccc3c2CN(S(=O)(=O)c2ccccc2)C3)CC1
2. O=S(=O)(c1ccccc1)N1CCc2cc(N3CCN(C4CCC4)CC3)ccc21
3. O=S(=O)(c1ccccc1)N1Cc2ccc(N3CCN(C4CCC4)CC3)cc2C1
4. CN1CCC(c2ccc3c(c2)CCN3S(=O)(=O)c2ccccc2)CC1
5. O=S(=O)(c1ccccc1)N1CCc2c(C3CCNCC3)cccc21
6. CCCN1CCC(c2ccc3c(c2)CCN3S(=O)(=O)c2ccccc2)CC1

12
36
74
59
-5
22

Provide each entry's inhibition from the list below.
1. CN1CCC(c2ccc3c(c2)N(S(=O)(=O)c2ccccc2)CC3)CC1
2. O=S(=O)(c1ccccc1)N1Cc2ccc(C3CCNCC3)cc2C1
3. CCCN1CCC(c2cccc3c2CN(S(=O)(=O)c2ccccc2)C3)CC1
4. CCN1CCC(c2ccc3c(c2)CCN3S(=O)(=O)c2ccccc2)CC1
5. O=S(=O)(c1ccccc1)N1CCc2c(N3CCN(C4CCC4)CC3)cccc21

3
3
4
54
59

// input: 2 compounds below; output: inhibition for each
1. CCN1CCC(c2cccc3c2CN(S(=O)(=O)c2ccccc2)C3)CC1
2. O=S(=O)(c1ccccc1)N1Cc2cccc(N3CCN(C4CCC4)CC3)c2C1

1. 3
2. 16

----------
Target: D(2) dopamine receptor (Homo sapiens, UniProt P14416)
Sequence (P14416 whole entry): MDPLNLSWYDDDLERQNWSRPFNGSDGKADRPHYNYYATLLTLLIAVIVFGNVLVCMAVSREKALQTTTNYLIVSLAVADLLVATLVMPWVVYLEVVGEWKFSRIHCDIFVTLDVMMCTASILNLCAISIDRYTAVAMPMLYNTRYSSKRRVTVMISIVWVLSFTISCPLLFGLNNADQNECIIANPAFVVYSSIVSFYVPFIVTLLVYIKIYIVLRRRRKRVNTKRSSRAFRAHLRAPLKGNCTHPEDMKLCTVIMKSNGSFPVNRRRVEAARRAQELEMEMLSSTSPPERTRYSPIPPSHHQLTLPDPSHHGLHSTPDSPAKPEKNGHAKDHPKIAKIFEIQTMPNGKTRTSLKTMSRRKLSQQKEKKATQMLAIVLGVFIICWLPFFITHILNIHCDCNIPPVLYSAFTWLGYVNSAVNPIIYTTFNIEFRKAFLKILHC
Test: Displacement of [3H]raclopride from human recombinant dopamine D2 long receptor expressed in CHO-K1 cells at 1 uM incubated for 120 mins by scintillation counting analysis
Format: cell-based
measured property: inhibition
Write the quantity with the unit trailing the number.

• CCCN1CCN(c2cccc3c2CCN3S(=O)(=O)c2ccccc2)CC1 = 87%
• CN1CCN(c2cccc3c2CN(S(=O)(=O)c2ccccc2)C3)CC1 = 43%
• O=S(=O)(c1ccccc1)N1CCc2c(C3CCNCC3)cccc21 = 10%
• CCN1CCC(c2cccc3c2CCN3S(=O)(=O)c2ccccc2)CC1 = 25%
• O=S(=O)(c1ccccc1)N1Cc2ccc(C3CCNCC3)cc2C1 = 9%
• CN1CCC(c2cccc3c2CCN3S(=O)(=O)c2ccccc2)CC1 = 35%
• O=S(=O)(c1ccccc1)N1Cc2ccc(C3CCN(C4CCC4)CC3)cc2C1 = 25%
• CCCN1CCN(c2ccc3c(c2)CCN3S(=O)(=O)c2ccccc2)CC1 = 59%

Hello, I would appreciate it if you could give inhibition for each entry below.
1. CCCN1CCC(c2cccc3c2CCN3S(=O)(=O)c2ccccc2)CC1
2. CCN1CCC(c2ccc3c(c2)N(S(=O)(=O)c2ccccc2)CC3)CC1
3. CCCN1CCN(c2ccc3c(c2)N(S(=O)(=O)c2ccccc2)CC3)CC1

["38%", "39%", "80%"]

Parameter requested: inhibition. Apply to each item below.
1. CN1CCC(c2ccc3c(c2)CCN3S(=O)(=O)c2ccccc2)CC1
2. CN1CCN(c2ccc3c(c2)CN(S(=O)(=O)c2ccccc2)C3)CC1
3. CN1CCC(c2ccc3c(c2)N(S(=O)(=O)c2ccccc2)CC3)CC1
4. O=S(=O)(c1ccccc1)N1CCc2c(N3CCN(C4CCC4)CC3)cccc21

["14%", "11%", "34%", "60%"]

Could you report inhibition for every entry in the following list?
1. O=S(=O)(c1ccccc1)N1Cc2cccc(N3CCN(C4CCC4)CC3)c2C1
2. O=S(=O)(c1ccccc1)N1CCc2ccc(N3CCNCC3)cc21
3. CCN1CCC(c2ccc3c(c2)CN(S(=O)(=O)c2ccccc2)C3)CC1
4. O=S(=O)(c1ccccc1)N1CCc2ccc(N3CCN(C4CCC4)CC3)cc21
5. CCN1CCN(c2cccc3c2CN(S(=O)(=O)c2ccccc2)C3)CC1

["47%", "32%", "18%", "50%", "55%"]

Provide inhibition values for the following items, in order.
1. CCN1CCN(c2ccc3c(c2)CCN3S(=O)(=O)c2ccccc2)CC1
2. O=S(=O)(c1ccccc1)N1CCc2ccc(C3CCN(C4CCC4)CC3)cc21
3. O=S(=O)(c1ccccc1)N1Cc2cccc(C3CCNCC3)c2C1
4. CCCN1CCN(c2cccc3c2CN(S(=O)(=O)c2ccccc2)C3)CC1
5. O=S(=O)(c1ccccc1)N1Cc2cccc(N3CCNCC3)c2C1
6. CN1CCN(c2ccc3c(c2)CCN3S(=O)(=O)c2ccccc2)CC1
7. CCCN1CCC(c2ccc3c(c2)CN(S(=O)(=O)c2ccccc2)C3)CC1
8. O=S(=O)(c1ccccc1)N1CCc2cc(N3CCNCC3)ccc21

50%
29%
17%
64%
29%
18%
16%
18%

----------
Provide the reported inhibition of each item.
Target: UniProt Q9Y5N1
Experiment: Displacement of N-alpha-[methyl-3H]methylhistamine dihydrochloride from human recombinant histamine H3 receptor expressed in CHO-K1 cells at 1 uM incubated for 30 mins by liquid scintillation counting analysis
Type: cell-based
Put your answer as a value accompanied by its unit after it.

Solved cases (3 shown):
• O=S(=O)(c1ccccc1)N1CCc2ccc(N3CCNCC3)cc21 = 4%
• O=S(=O)(c1ccccc1)N1Cc2ccc(N3CCNCC3)cc2C1 = 7%
• CCN1CCN(c2cccc3c2CN(S(=O)(=O)c2ccccc2)C3)CC1 = 17%

Read the next record carefully.
Input CCN1CCC(c2ccc3c(c2)N(S(=O)(=O)c2ccccc2)CC3)CC1 , output reported inhibition.
11%
